B1: E3 ubiquitin-protein ligase NEDD4-like, residues 539 to 589; numbered along this chain, Q96PU5 (parent)
chain: KTSLNPNDLGPLPPGWEERIHLDGRTFYIDHNSKITQWEDPRLQNPAITGP

Variants of: B1
Assay Method Text: abundance fitness (aPCA) (normalised: wild type 0, dead -1); higher = more abundant; growth selection in yeast, the domain comes from the species named
Applied Conditions: Homo sapiens
Tag: 1 if measured abundance fitness is not below -0.3, -1 if it is.

• F27E = 1
• P14H = 1
• I29E = 1
• H21M = 1
• P41Y = -1
• D23H = -1
• G50W = 1
• S3E = -1
• N5K = 1
• N7Y = -1
• H21N = 1
• N45M = 1
• Y28H = -1
• I20Q = 1
• S33A = 1
• E17M = -1
• L9F = 1
• T26V = 1
• R42E = -1
• T49K = 1
• P41G = -1
• N5W = -1
